molecular target: hTRPA1 (Homo sapiens, UniProt O75762, K186N); construct: expressed in transfected cells; host or cells: HEK293/TREx (Invitrogen), induced with tetracycline; assay: High throughput Ca2+ fluorescence (Fluo4) assay, AITC stimulation; format: cell-based; conditions: Table 1; read-out: hTRPA1 Fluo4 IC50
Sequence (O75762 whole entry K186N): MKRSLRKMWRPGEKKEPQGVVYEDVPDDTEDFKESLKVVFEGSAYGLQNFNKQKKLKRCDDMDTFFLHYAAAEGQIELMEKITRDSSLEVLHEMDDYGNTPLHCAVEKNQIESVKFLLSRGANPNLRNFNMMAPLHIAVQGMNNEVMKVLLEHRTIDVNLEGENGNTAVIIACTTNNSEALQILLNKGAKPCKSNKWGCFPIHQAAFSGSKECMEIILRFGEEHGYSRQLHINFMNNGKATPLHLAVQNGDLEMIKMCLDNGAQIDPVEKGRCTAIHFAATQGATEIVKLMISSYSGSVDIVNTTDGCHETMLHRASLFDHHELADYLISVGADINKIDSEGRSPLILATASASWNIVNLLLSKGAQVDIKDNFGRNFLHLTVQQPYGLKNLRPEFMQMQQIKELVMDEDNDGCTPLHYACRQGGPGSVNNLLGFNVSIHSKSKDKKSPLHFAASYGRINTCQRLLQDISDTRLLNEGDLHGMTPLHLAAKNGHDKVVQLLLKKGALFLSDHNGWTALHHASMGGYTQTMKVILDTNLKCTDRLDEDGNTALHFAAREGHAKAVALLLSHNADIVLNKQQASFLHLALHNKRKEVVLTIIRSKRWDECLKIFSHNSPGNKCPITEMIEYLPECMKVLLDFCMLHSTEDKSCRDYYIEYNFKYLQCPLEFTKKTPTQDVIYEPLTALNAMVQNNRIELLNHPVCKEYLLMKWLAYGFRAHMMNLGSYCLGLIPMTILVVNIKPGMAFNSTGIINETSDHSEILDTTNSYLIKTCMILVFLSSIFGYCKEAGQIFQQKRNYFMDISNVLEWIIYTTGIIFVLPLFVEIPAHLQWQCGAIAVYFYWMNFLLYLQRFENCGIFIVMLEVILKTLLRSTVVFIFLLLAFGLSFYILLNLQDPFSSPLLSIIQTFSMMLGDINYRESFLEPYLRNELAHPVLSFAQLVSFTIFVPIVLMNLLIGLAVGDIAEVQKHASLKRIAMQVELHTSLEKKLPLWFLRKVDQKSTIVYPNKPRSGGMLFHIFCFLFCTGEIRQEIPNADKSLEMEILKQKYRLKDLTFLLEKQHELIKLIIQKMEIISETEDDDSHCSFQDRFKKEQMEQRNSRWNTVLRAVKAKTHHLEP
observed.property: IC50

Q: Please report the recorded IC50 for CC1=C(C(=O)OC2CCCCC2)C(c2ccc(F)cc2)NC(=O)N1 (stereo not drawn) .
A: > 10 µM

Q: // repeat for CCOC(=O)C1=C(C)NC(=S)NC1c1ccc(CC)cc1 (stereo not drawn) and report
A: > 10 µM

Q: Also CCOC(=O)C1=C(CN2CC(C)CC(C)C2)NC(=O)NC1c1ccc(Cl)cc1 (stereo not drawn) , if possible.
A: > 10 µM

Q: And then CCOC(=O)C1=C(c2ccccc2)NC(=O)NC1c1ccc(CC)cc1 (stereo not drawn) , what is it?
A: ≤ 10 µM

Q: Query CC1=C(C(=O)N2CCOCC2)C(c2ccc(F)cc2)NC(=O)N1 (stereo not drawn) next
A: > 10 µM

Q: Can you handle COCCOC(=O)C1=C(C)NC(=S)NC1c1ccc(Br)cc1 (stereo not drawn) next?
A: > 10 µM

----------
Assay: Plasma levels / pharmacokinetics in male Sprague-Dawley rat
Assay type: in vivo
Details: plasma; male Sprague-Dawley rat, intravenous bolus 0.9 mg/kg
Procedure: Compound 200 plasma levels were determined via HPLC/MS/MS following a single intravenous bolus dose of 0.9 mg/kg, an intraperitoneal dose of 12 mg/kg (suspension), and an oral dose of 12 mg/kg (suspension) in the male Sprague-Dawley rat. […] For intraperitoneal administration, Compound 200 was formulated as a uniform suspension in CMC (carboxymethylcellulose) at a target concentration of 1 mg/mL and administered at a dose volume of 10 mL/kg. […]
observed.property: half-life (min)
Express your answer in min, writing the number without its unit.

Q: What does the data say about its half-life? Entry: CC(C)c1ccc(NC(=O)Cn2cnc3c2c(=O)n(C)c(=O)n3C)cc1 [Compound 200]
A: 32

----------
So I've got a bunch of molecules here, and I need their IC50 values.
biological target: hTRPA1 (Homo sapiens, UniProt O75762, K186N); construct: expressed in transfected cells; host or cells: HEK293/TREx (Invitrogen), induced with tetracycline; test: TRPA1 patch clamp (perforated patch, AITC-activated current); assay type: cell-based; details: Table 2; inward current; read-out: hTRPA1 Patch Inwd IC50

Q: Could you share what IC50 was measured for Cn1c(=O)c2c(ncn2CC(=O)Nc2ccc(F)cc2)n(C)c1=O [Compound 209] , tested on hTRPA1 (Homo sapiens, UniProt O75762, K186N)?
A: > 10 µM

Q: Now give it for Cn1c(=O)c2c(ncn2CC(=O)Nc2ccc(Cl)c(Cl)c2)n(C)c1=O [Compound 217] too.
A: ≤ 1 µM

Q: Same question, Cn1c(=O)c2c(ncn2CC(=O)Nc2ccc([N+](=O)[O-])cc2)n(C)c1=O [Compound 210] this time
A: ≤ 10 µM

Q: Check CCOc1ccc(NC(=O)Cn2cnc3c2c(=O)n(C)c(=O)n3C)cc1 [Compound 208] too.
A: > 10 µM

Q: Now try CC(C(=O)Nc1ccc(Cl)cc1)n1cnc2c1c(=O)n(C)c(=O)n2C (stereo not drawn) [Compound 300] .
A: ≤ 1 µM

Q: Also, Cn1c(=O)c2c(ncn2CC(=O)NCCc2ccccc2F)n(C)c1=O [Compound 404] please.
A: ≤ 1 µM

Q: Now give it for Cc1ccccc1CNC(=O)Cn1cnc2c1c(=O)n(C)c(=O)n2C [Compound 313] too.
A: ≤ 10 µM

Q: Then Cn1c(=O)c2c(ncn2CC(=O)NCc2cccnc2)n(C)c1=O [Compound 206] ?
A: ≤ 10 µM

Q: Would you kindly repeat that for CC(C)c1ccc(NC(=O)Cn2cnc3[nH]c(=O)[nH]c(=O)c32)cc1 [Compound 399] ?
A: ≤ 10 µM

Q: Then Cn1c(=O)c2c(ncn2CC(=O)Nc2ccc(Br)cc2F)n(C)c1=O [Compound 371] ?
A: ≤ 5 µM

Q: Quick one: Cc1ccc(F)cc1NC(=O)Cn1cnc2c1c(=O)n(C)c(=O)n2C [Compound 277]
A: ≤ 10 µM

Q: Now this one: Cn1c(=O)c2c(ncn2CC(=O)Nc2ccc(N3CCCCC3)cc2)n(C)c1=O [Compound 252]
A: ≤ 10 µM

Q: Similarly, Cn1c(=O)c2c(ncn2CC(=O)NCCSCc2ccccc2)n(C)c1=O [Compound 329] ?
A: ≤ 10 µM

Q: Note, next up: COc1cccc(CCNC(=O)Cn2cnc3c2c(=O)n(C)c(=O)n3C)c1 [Compound 408]
A: ≤ 5 µM

Q: How about this molecule: Cn1c(=O)c2c(ncn2CC(=O)Nc2ccc(Nc3ccccc3)cc2)n(C)c1=O [Compound 250]
A: ≤ 1 µM

Q: Now the molecule Cn1c(=O)c2c(ncn2CC(=O)Nc2ccc(Br)cc2Cl)n(C)c1=O [Compound 333]
A: ≤ 1 µM

Q: Then Cn1c(=O)c2c(ncn2CC(=O)Nc2ccc(Br)cc2)n(C)c1=O [Compound 202] ?
A: ≤ 5 µM

Q: Consider next the molecule Cn1c(=O)[nH]c(=O)c2c1ncn2CC(=O)Nc1ccc(C2CCCC2)cc1 [Compound 394] in the same way.
A: ≤ 5 µM

FYI, the data here is from patent US7671061B2.
